So I've got a bunch of compounds here, and I need their pIC50 values.
Quick note: pIC50 means taking -log10 of the concentration in moles per liter.

# input What value of pIC50 on PDGFRb (Homo sapiens) does c1cc(-c2cnc3cc(-c4ccc(C5CNCCN5)cc4)ccn23)c2cccnc2c1 (stereo not shown) [Compound 33] have?
# output 5.11

# input State its pIC50 on PDGFRb (Homo sapiens): Cc1cc(-c2cnc3cc(-c4ccc(C5COC6(CCNCC6)CN5)cc4)ccn23)c2cc(F)cc(F)c2n1 (stereo not shown) [Compound 16]
# Sequence (P09619 33-1106, species assumed): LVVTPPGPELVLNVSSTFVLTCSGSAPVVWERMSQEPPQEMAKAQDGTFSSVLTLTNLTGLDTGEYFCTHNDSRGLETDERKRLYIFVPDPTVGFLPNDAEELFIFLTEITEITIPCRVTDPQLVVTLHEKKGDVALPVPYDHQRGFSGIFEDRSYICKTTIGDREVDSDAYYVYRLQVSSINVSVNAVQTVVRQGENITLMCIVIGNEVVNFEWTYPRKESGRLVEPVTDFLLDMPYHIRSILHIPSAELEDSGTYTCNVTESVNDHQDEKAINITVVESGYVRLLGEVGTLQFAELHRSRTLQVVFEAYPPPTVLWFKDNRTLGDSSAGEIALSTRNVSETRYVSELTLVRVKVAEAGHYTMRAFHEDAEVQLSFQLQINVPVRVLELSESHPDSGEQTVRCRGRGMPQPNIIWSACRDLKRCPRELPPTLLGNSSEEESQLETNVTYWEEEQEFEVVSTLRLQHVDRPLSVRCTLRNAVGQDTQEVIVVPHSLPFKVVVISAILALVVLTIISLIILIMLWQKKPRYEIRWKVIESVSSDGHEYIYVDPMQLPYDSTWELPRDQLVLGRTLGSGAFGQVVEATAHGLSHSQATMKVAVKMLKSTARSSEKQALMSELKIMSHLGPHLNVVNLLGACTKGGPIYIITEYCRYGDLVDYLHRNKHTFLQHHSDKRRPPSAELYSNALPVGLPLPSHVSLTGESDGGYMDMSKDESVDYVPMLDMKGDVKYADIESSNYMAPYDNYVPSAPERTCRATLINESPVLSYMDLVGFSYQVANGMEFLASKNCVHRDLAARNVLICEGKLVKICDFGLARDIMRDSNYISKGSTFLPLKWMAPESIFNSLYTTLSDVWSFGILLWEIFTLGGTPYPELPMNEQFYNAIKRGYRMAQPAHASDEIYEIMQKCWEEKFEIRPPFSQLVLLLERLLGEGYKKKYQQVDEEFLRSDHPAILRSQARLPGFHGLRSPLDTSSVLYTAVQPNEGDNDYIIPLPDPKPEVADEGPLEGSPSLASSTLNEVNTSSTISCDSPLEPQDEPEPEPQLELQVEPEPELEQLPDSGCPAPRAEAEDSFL
# output 5.11

# input Short answer please: pIC50, PDGFRb (Homo sapiens), entry NS(=O)(=O)c1ccc(-c2cnc3cc(-c4ccc(C5CNCCN5)cc4)ccn23)c2ccccc12 (stereo not shown) [Compound 37]
# output 5.19

# input What is its pIC50 for PDGFRb (Homo sapiens)? Entry: Cc1cc(-c2cnc3cc(-c4ccc(C5CNCCN5)cc4)ccn23)c2cc(F)ccc2n1 (stereo not shown) [Compound 17]
# output 5.16

###

Could you please report measured CLint scaled for the items listed next?
Experiment: Intrinsic clearance, human
Assay type: in vitro ADME
Conditions: human, CL-Hep, value in parentheses, read-out: Intrinsic Clearance Human (CL-Hep)
Only the number, expressed in mL/min/kg, is required.

# input CLint scaled lookup needed for Cc1cc(-c2cnc3cc(-c4ccc(C5CNCCN5)cc4)ccn23)c2cc(F)ccc2n1 (stereo not shown) , thanks.
# output 14

# input GET /values?readout=CLint scaled&item= Cc1cc(-c2cnc3cc(-c4ccc(C5COC(C)CN5)cc4)ccn23)c2ccccc2n1 (stereo not shown)
# output 16.5

# input GET /values?readout=CLint scaled&item= "Cc1cc(-c2cnc3cc(-c4ccc(N5CCC6(CCCCN6)CC5)cc4)ccn23)c2cc(F)cc(F)c2n1"
# output 14

# input Which CLint scaled is reported for this compound? c1cnc2c(-c3cnc4cc(-c5ccc(C6CNCCN6)cc5)ccn34)ccnc2c1 (stereo not shown)
# output 12.3

# input Quick check: CLint scaled of Cc1cc(-c2cnc3cc(-c4ccc(C5COCCN5)cc4)ccn23)c2cc(F)ccc2n1 (stereo not shown) ?
# output 17.4

# input May I ask what CLint scaled has been recorded for Cc1cc(-c2cnc3cc(-c4ccc(C5COC(C)CN5)cc4)ccn23)c2cc(F)ccc2n1 (stereo not shown) ?
# output 15.7

# input Quick one: CLint scaled of "Cc1cc(-c2cnc3cc(N4CC5(CCNCC5)C4)ccn23)c2cc(F)cc(F)c2n1" ?
# output 14

# input Find the recorded CLint scaled belonging to Cc1cc(-c2cnc3cc(-c4ccc(C5COCCN5)cc4)ccn23)c2ccccc2n1 (stereo not shown) and report it.
# output 17.5

# input For the compound Cc1cc(-c2cnc3cc(-c4ccc(C5COCCCN5)cc4)ccn23)c2cc(F)cc(F)c2n1 (stereo not shown) , what CLint scaled is on record?
# output 16.6

# input Which measured CLint scaled value corresponds to Cc1cc(-c2cnc3cc(-c4ccc(C5COC(C)CN5)cc4)ccn23)c2cc(F)cc(F)c2n1 (stereo not shown) ?
# output 15.9

# input Need CLint scaled of Cc1cc(-c2cnc3cc(-c4ccc(C5COCC(C)N5)cc4)ccn23)c2cc(F)ccc2n1 (stereo not shown) , thanks.
# output 17.1

# input Could you share which CLint scaled value was measured for Cc1cc(-c2cnc3cc(-c4ccc(C5COCCCN5)cc4)ccn23)c2cc(F)ccc2n1 (stereo not shown) ?
# output 17.4

# input I have this compound here, Cc1cc(-c2cnc3cc(-c4ccc(C5COCC(C)N5)cc4)ccn23)c2cc(F)cc(F)c2n1 (stereo not shown) , and I need its recorded CLint scaled.
# output 17.5

# input Returns the measured CLint scaled for the input compound. Input: Cc1cc(-c2cnc3cc(-c4ccc(C5COCCN5)cc4)ccn23)c2cc(F)cc(F)c2n1 (stereo not shown)
# output 17.5
